# ASSAY TEXT: Absorption and fluorescence spectra, extinction coefficient, fluorescence quantum yield
# Assay type: physicochemical
# DETAILS: Table 10, DMSO
Label rule met when Observed absorption λmax is at or above 600 nm; anything below gets rule not met.

Use the examples below as a reference point.
{"COMPOUND": "C[n+]1ccc(/C=C/C2=C([O-])c3ccccc3S2(=O)=O)cc1 [P-SO(2)]", "DISCRETE LABEL": "rule not met"}
{"COMPOUND": "CC1(C)c2ccccc2-[n+]2ccc(/C=C/C3=C([O-])c4ccccc4S3(=O)=O)cc21 [AI-SO(2)]", "DISCRETE LABEL": "rule not met"}

# ---- query compound ----
IN: Answer whether Observed absorption λmax of CC1(C)c2ccccc2-[n+]2ccc(/C=C/C=C/C3=C(O)c4ccccc4S3(=O)=O)cc21 [AI-SO] is greater than or equal to 600 nm.
OUT: rule met

###

# ASSAY TEXT: Absorption and fluorescence spectra, extinction coefficient, fluorescence quantum yield
# Assay type: physicochemical
# DETAILS: Table 15, i-PrOH
Catalogue of Observed emission (Φ) values
Reply: number alone, nothing else.

{"COMPOUND": "CC1(C)c2ccccc2-[n+]2ccc(/C=C/C3=C([O-])c4ccccc4S3(=O)=O)cc21 [AI-SO(2)]", "Observed emission (Φ)": 0.13}

IN: # Observed emission (Φ) lookup, item C[n+]1ccc(/C=C/C2=C([O-])c3ccccc3S2(=O)=O)cc1 [P-SO(2)]
OUT: 0.014

IN: # Observed emission (Φ) lookup, item Cn1c([O-])c(/C=C/C=C/c2cc[n+]3c(c2)C(C)(C)c2ccccc2-3)c(=O)n(C)c1=O [AI-BA]
OUT: 0.22

IN: # Observed emission (Φ) lookup, item C[n+]1ccc(/C=C/C=C/C2=C([O-])c3ccccc3S2(=O)=O)cc1 [P-SO(4)]
OUT: 0.049

IN: # Observed emission (Φ) lookup, item CC1(C)c2ccccc2-[n+]2ccc(/C=C/C=C/C3=C(O)c4ccccc4S3(=O)=O)cc21 [AI-SO]
OUT: 0.96

###

Catalogue of Observed emission (Φ) values
# ASSAY TEXT: Absorption and fluorescence spectra, extinction coefficient, fluorescence quantum yield
# Assay type: physicochemical
# DETAILS: Table 15, CH3CN
Reply: number alone, nothing else.

{"CHEM SMILES": "C[n+]1ccc(/C=C/C2=C([O-])c3ccccc3S2(=O)=O)cc1", "Observed emission (Φ)": 0.011}
{"CHEM SMILES": "Cn1c([O-])c(/C=C/C=C/c2cc[n+]3c(c2)C(C)(C)c2ccccc2-3)c(=O)n(C)c1=O", "Observed emission (Φ)": 0.05}

IN: # Observed emission (Φ) lookup, item C[n+]1ccc(/C=C/C=C/C2=C([O-])c3ccccc3S2(=O)=O)cc1
OUT: 0.067

IN: # Observed emission (Φ) lookup, item CC1(C)c2ccccc2-[n+]2ccc(/C=C/C3=C([O-])c4ccccc4S3(=O)=O)cc21
OUT: 0.06

IN: # Observed emission (Φ) lookup, item CC1(C)c2ccccc2-[n+]2ccc(/C=C/C=C/C3=C(O)c4ccccc4S3(=O)=O)cc21
OUT: 0.75

###

# ASSAY TEXT: Absorption and fluorescence spectra, extinction coefficient, fluorescence quantum yield
# Type: physicochemical
# DETAILS: Table 15, MeOH
# Experimental: Absorption spectra were recorded on a Hewlett-Packard 8453 diode array UV-Vis spectrophotometer (Agilent Technologies, Inc., Santa Clara, Calif.), and fluorescence measurements were taken on a SPEX® Fluorolog 2 spectrofluorometer (HORIBA Jobin Yvon, Inc., Edison, N.J.). Melting points are not corrected. NMR spectra were obtained on a Varian Mercury 300 MHz (Varian, Inc., Palo Alto, Calif.) or on a Bruker 300 MHz DRX 300 spectrometer (Bruker Biospin Corp., Billerica, Mass.). […]
METRIC NAME: Observed emission (Φ)
Reply: number alone, nothing else.

Answered cases to consult:
{"COMPOUND": "C[n+]1ccc(/C=C/C2=C([O-])c3ccccc3S2(=O)=O)cc1 [P-SO(2)]", "Observed emission (Φ)": 0.005}
{"COMPOUND": "CC1(C)c2ccccc2-[n+]2ccc(/C=C/C3=C([O-])c4ccccc4S3(=O)=O)cc21 [AI-SO(2)]", "Observed emission (Φ)": 0.05}
{"COMPOUND": "CC1(C)c2ccccc2-[n+]2ccc(/C=C/C=C/C3=C(O)c4ccccc4S3(=O)=O)cc21 [AI-SO]", "Observed emission (Φ)": 0.54}
{"COMPOUND": "C[n+]1ccc(/C=C/C=C/C2=C([O-])c3ccccc3S2(=O)=O)cc1 [P-SO(4)]", "Observed emission (Φ)": 0.018}
{"COMPOUND": "Cn1c([O-])c(/C=C/C=C/c2cc[n+]3c(c2)C(C)(C)c2ccccc2-3)c(=O)n(C)c1=O [AI-BA]", "Observed emission (Φ)": 0.52}
{"COMPOUND": "CN1/C(=C/C=C/C=C2/C(=O)c3ccccc3S2(=O)=O)C(C)(C)c2ccccc21 [I-SO, reference compound]", "Observed emission (Φ)": 0.08}

Now consider the entry below.
IN: # Observed emission (Φ) lookup, item CCN1C(=O)\C(=C/C=C/C=C2/N(C)c3ccccc3C2(C)C)C(O)N(CC)C1=S (stereo not shown) [I-TBA, reference compound]
OUT: 0.26
